All values here come from paper PMC11251990.

target: dipeptidyl peptidase 1 (DPP1, cathepsin C) (Rattus norvegicus); construct: recombinant rat DPP1, proteolytically processed into mature form with cathepsin L; assay: fluorogenic H-Gly-Arg-AMC cleavage assay with recombinant enzyme
Sequence (P80067 25-134): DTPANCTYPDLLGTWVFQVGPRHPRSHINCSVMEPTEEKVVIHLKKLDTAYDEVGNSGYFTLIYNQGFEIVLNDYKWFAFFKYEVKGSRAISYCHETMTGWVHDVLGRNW
Sequence (P80067 230-393): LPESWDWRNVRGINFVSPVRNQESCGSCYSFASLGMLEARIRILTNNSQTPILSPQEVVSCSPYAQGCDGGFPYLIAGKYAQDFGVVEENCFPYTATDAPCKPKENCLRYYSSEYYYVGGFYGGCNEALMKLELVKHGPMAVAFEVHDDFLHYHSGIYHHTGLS
Sequence (P80067 394-462): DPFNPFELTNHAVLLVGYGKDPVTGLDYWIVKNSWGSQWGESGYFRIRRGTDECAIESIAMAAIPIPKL
RECORDED_ENDPOINT: pIC50
Hey, just a heads up that pIC50 is the negative log base 10 of the concentration in molar.

Entry Cn1c(=O)oc2ccc(-c3ccc(C[C@@H](C#N)NC(=O)[C@@H]4CNCCCO4)cc3)cc21 [brensocatib] , system dipeptidyl peptidase 1 (DPP1, cathepsin C) (Rattus norvegicus): what pIC50 was measured?
7.29

---

biological target: dipeptidyl peptidase 1 (DPP1, cathepsin C) (Canis lupus, UniProt O97578); construct: native DPP1 in dog white blood cell lysate; experiment: fluorogenic H-Gly-Arg-AMC cleavage assay in crude white blood cell lysate; conditions: read-out: DPP1 / Dog
Sequence (O97578 1-109): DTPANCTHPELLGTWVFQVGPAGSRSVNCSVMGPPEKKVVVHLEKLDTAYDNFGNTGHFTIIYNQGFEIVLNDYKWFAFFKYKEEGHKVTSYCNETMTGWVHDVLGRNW
Sequence (O97578 200-435): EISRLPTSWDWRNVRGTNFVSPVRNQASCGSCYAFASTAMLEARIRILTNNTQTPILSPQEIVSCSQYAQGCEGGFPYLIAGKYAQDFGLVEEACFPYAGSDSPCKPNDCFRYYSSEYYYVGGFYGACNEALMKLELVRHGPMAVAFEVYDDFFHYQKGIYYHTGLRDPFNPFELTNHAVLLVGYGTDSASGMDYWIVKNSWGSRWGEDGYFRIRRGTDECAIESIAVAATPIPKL
RECORDED_ENDPOINT: IC50
Please provide the amount together with its unit, number first.

Item Cn1c(=O)oc2ccc(-c3ccc(C[C@@H](C#N)NC(=O)[C@@H]4CNCCCO4)cc3)cc21 has what recorded IC50?
0.0381 µM
